Provide the reported MIC (anti-bacterial activity) of each item.
System: Streptococcus pneoumoniae (SPN)
method-notes: MIC, two-fold agar dilution (CLSI), clinical isolates
Assay type: cell-based
recorded-conditions: strain SPN 16-2
Use µg/mL as the unit, but write only the number.

Task: Entry CCCC[C@H](CN(O)C=O)C(=O)N1CC2(CC2)C[C@H]1C(=O)Nc1nc(C)cs1 [Example 19] , system Streptococcus pneoumoniae (SPN): what MIC (anti-bacterial activity) was measured?
Output: 4

Task: Entry CCCC[C@H](CN(O)C=O)C(=O)N1CC2(CC2)C[C@H]1c1nc2ccccc2n1CCN(C)C [Example 24] , system Streptococcus pneoumoniae (SPN): what MIC (anti-bacterial activity) was measured?
Output: 4

Task: Entry CCCC[C@H](CN(O)C=O)C(=O)N1CC2(CC2)C[C@H]1C(=O)Nc1cc(C)on1 [Example 21] , system Streptococcus pneoumoniae (SPN): what MIC (anti-bacterial activity) was measured?
Output: 4

###

Tested on: Moraxella catarrhalis (BCA)
method-notes: MIC, two-fold agar dilution (CLSI), clinical isolates
Format: cell-based
recorded-conditions: strain BCA 14-8
Provide the reported Anti-bacterial activity (MIC) of each item.

Task: Entry O=C(C[C@@H](CC1CCCC1)C(=O)N1CC2(CC2)C[C@H]1C(=O)Nc1ncco1)NO [Example 69] , system Moraxella catarrhalis (BCA): what Anti-bacterial activity (MIC) was measured?
Output: > 32 µg/mL

Task: Entry O=C(C[C@@H](CC1CCCC1)C(=O)N1CC2(CC2)C[C@@H]1c1nc2ccccc2[nH]1)NO [Example 76] , system Moraxella catarrhalis (BCA): what Anti-bacterial activity (MIC) was measured?
Output: > 32 µg/mL

Task: Entry O=C(C[C@@H](CC1CCCC1)C(=O)N1CC2(CC2)C[C@H]1C(=O)Nc1nncs1)NO [Example 74] , system Moraxella catarrhalis (BCA): what Anti-bacterial activity (MIC) was measured?
Output: > 32 µg/mL

###

Provide the reported Anti-bacterial activity (MIC), strain MSSE 15-5 of each item.
Test system: methicillin-sensitive Staphylococcus epidermidis (MSSE)
method-notes: MIC, two-fold agar dilution (CLSI), clinical isolates
Assay type: cell-based
recorded-conditions: clinical isolate MSSE 15-5

Task: Which Anti-bacterial activity (MIC), strain MSSE 15-5 value is on record for O=C(C[C@@H](CC1CCCC1)C(=O)N1CC2(CC2)C[C@H]1C(=O)NC1CC1)NO [Example 68] ?
Output: > 32 µg/mL

Task: Which Anti-bacterial activity (MIC), strain MSSE 15-5 value is on record for CCCC[C@H](CC(=O)NO)C(=O)N1CC2(CC2)C[C@H]1C(=O)Nc1ncccc1F [Example 49] ?
Output: > 32 µg/mL

Task: Which Anti-bacterial activity (MIC), strain MSSE 15-5 value is on record for CCCC[C@H](CC(=O)NO)C(=O)N1CC2(CC2)C[C@H]1C(=O)Nc1ncco1 [Example 53] ?
Output: > 32 µg/mL

Task: Which Anti-bacterial activity (MIC), strain MSSE 15-5 value is on record for CCCC[C@H](CC(=O)NO)C(=O)N1CC2(CC2)C[C@H]1C(=O)Nc1cnn(CCN(C)C)c1 [Example 52] ?
Output: > 32 µg/mL

Task: Which Anti-bacterial activity (MIC), strain MSSE 15-5 value is on record for CCCC[C@H](CC(=O)NO)C(=O)N1CC2(CC2)C[C@H]1c1nc2ccccc2[nH]1 [Example 58] ?
Output: > 32 µg/mL

Task: Which Anti-bacterial activity (MIC), strain MSSE 15-5 value is on record for O=C(C[C@@H](CC1CCCC1)C(=O)N1CC2(CC2)C[C@@H]1c1nc2ccccc2[nH]1)NO [Example 76] ?
Output: > 32 µg/mL

Task: Which Anti-bacterial activity (MIC), strain MSSE 15-5 value is on record for CCCC[C@H](CC(=O)NO)C(=O)N1CC2(CC2)C[C@H]1c1nc2ccccc2n1CCN(C)C [Example 60] ?
Output: > 32 µg/mL

Task: Which Anti-bacterial activity (MIC), strain MSSE 15-5 value is on record for CCCC[C@H](CC(=O)NO)C(=O)N1CC2(CC2)C[C@@H]1c1nc2ccccc2[nH]1 [Example 59] ?
Output: > 32 µg/mL

Task: Which Anti-bacterial activity (MIC), strain MSSE 15-5 value is on record for O=C(C[C@@H](CC1CCCC1)C(=O)N1CC2(CC2)C[C@H]1C(=O)Nc1ccno1)NO [Example 70] ?
Output: 1 µg/mL

Task: Which Anti-bacterial activity (MIC), strain MSSE 15-5 value is on record for O=C(C[C@@H](CC1CCCC1)C(=O)N1CC2(CC2)C[C@H]1C(=O)Nc1ccncn1)NO [Example 63] ?
Output: 0.25 µg/mL

Task: Which Anti-bacterial activity (MIC), strain MSSE 15-5 value is on record for O=C(C[C@@H](CC1CCCC1)C(=O)N1CC2(CC2)C[C@H]1C(=O)Nc1nncs1)NO [Example 74] ?
Output: 1 µg/mL

###

System: Enterococcus faecalis (EFA)
method-notes: MIC, two-fold agar dilution (CLSI), clinical isolates
Assay type: cell-based
recorded-conditions: strain EFA 15-4
Provide the reported Anti-bacterial activity (MIC) of each item.

Task: Which Anti-bacterial activity (MIC) value is on record for O=C(C[C@@H](CC1CCCC1)C(=O)N1CC2(CC2)C[C@H]1C(=O)Nc1ncco1)NO [Example 69] ?
Output: > 32 µg/mL

Task: Which Anti-bacterial activity (MIC) value is on record for O=C(C[C@@H](CC1CCCC1)C(=O)N1CC2(CC2)C[C@H]1C(=O)Nc1nncs1)NO [Example 74] ?
Output: > 32 µg/mL

Task: Which Anti-bacterial activity (MIC) value is on record for CCCC[C@H](CC(=O)NO)C(=O)N1CC2(CCCC2)C[C@H]1C(=O)Nc1ccc(F)cn1 [Example 78] ?
Output: > 32 µg/mL

Task: Which Anti-bacterial activity (MIC) value is on record for CCCC[C@H](CC(=O)NO)C(=O)N1CC2(CCCC2)C[C@H]1C(=O)Nc1cc(C)on1 [Example 80] ?
Output: > 16 µg/mL

Task: Which Anti-bacterial activity (MIC) value is on record for O=C(C[C@@H](CC1CCCC1)C(=O)N1CC2(CC2)C[C@H]1C(=O)NC1CC1)NO [Example 68] ?
Output: > 32 µg/mL

Task: Which Anti-bacterial activity (MIC) value is on record for O=C(C[C@@H](CC1CCCC1)C(=O)N1CC2(CC2)C[C@H]1c1nc2ccccc2[nH]1)NO [Example 75] ?
Output: > 32 µg/mL

Task: Which Anti-bacterial activity (MIC) value is on record for O=C(C[C@@H](CC1CCCC1)C(=O)N1CC2(CC2)C[C@@H]1c1nc2ccccc2[nH]1)NO [Example 76] ?
Output: > 32 µg/mL
